Data credit: paper PMC5840523

Experiment: in vitro
Conditions: dog, MDCK-MDR1
Value Kind: Papp B→A at 150 min, 2 µM (×10⁻⁶ cm/s)
Unit ×10⁻⁶ cm/s implied. Number only.

q: Supply measured Papp B→A at 150 min, 2 µM of O=[N+]([O-])c1cn2c(n1)[S+]([O-])CC(OCc1ccc(-c3ccc(OC(F)(F)F)cc3)cn1)C2 (stereo not shown) in your reply.
a: 18.2

====

Kindly state half-life for each of the entries shown.
Assay: Mouse pharmacokinetics (plasma, whole blood, brain)
Format: in vivo, male CD-1 mice
Details: male, CD-1, mouse; whole blood; intravenous, corrected doses 0.5, 1.1, 2.9, 2.0 mg/kg for 9, 12, 17, 19; read-out: t1/2 (converted)
Protocol: In order to determine the suitability of the more permeable hits for in vivo efficacy studies, we first measured their aqueous solubilities, and their tendencies to metabolise, following a 1 h incubation with CD-1 mouse liver S9 subcellular fractions.[14] […]
Unit min implied. Number only.

q: Supply measured half-life of O=[N+]([O-])c1cn2c(n1)S(=O)(=O)CC(OCc1ccc(OC(F)(F)F)cc1)C2 (stereo not shown) [Compound 19] in your reply.
a: 354

q: Supply measured half-life of O=[N+]([O-])c1cn2c(n1)[S+]([O-])CC(OCc1ccc(OC(F)(F)F)cc1)C2 (stereo not shown) [Compound 12] in your reply.
a: 558

q: Supply measured half-life of O=[N+]([O-])c1cn2c(n1)[S+]([O-])CC(OCc1ccc(OCc3ccccc3)cc1)C2 (stereo not shown) [Compound 9] in your reply.
a: 25.2

q: Supply measured half-life of O=[N+]([O-])c1cn2c(n1)OC[C@@H](NCc1ccc(OC(F)(F)F)cc1)C2 [Compound 17] in your reply.
a: 558

====

Assay: Mouse pharmacokinetics (plasma, whole blood, brain)
Assay type: in vivo, male CD-1 mice
Settings: male, CD-1, mouse; brain; intravenous, corrected doses 0.5, 1.1, 2.9, 2.0 mg/kg for 9, 12, 17, 19
Value Kind: clearance (mL/min/kg)
Unit mL/min/kg implied. Number only.

q: Supply measured clearance of O=[N+]([O-])c1cn2c(n1)[S+]([O-])CC(OCc1ccc(OC(F)(F)F)cc1)C2 (stereo not shown) [Compound 12] in your reply.
a: 6.67

q: Supply measured clearance of O=[N+]([O-])c1cn2c(n1)[S+]([O-])CC(OCc1ccc(OCc3ccccc3)cc1)C2 (stereo not shown) [Compound 9] in your reply.
a: 25

q: Supply measured clearance of O=[N+]([O-])c1cn2c(n1)S(=O)(=O)CC(OCc1ccc(OC(F)(F)F)cc1)C2 (stereo not shown) [Compound 19] in your reply.
a: 8.5

q: Supply measured clearance of O=[N+]([O-])c1cn2c(n1)OC[C@@H](NCc1ccc(OC(F)(F)F)cc1)C2 [Compound 17] in your reply.
a: 48.3

====

Assay: Kinetic solubility in water or 0.1 M HCl (ACSRC)
Type: physicochemical
Conditions: 0.1 M HCl, pH 1; read-out: aqueous solubility
Value Kind: solubility at 15 min (µg/mL)
Unit µg/mL implied. Number only.

q: Supply measured solubility at 15 min of O=[N+]([O-])c1cn2c(n1)[S+]([O-])CC(OCc1ccc(-c3ccc(OC(F)(F)F)cc3)cn1)C2 (stereo not shown) in your reply.
a: 1260

====

Experiment: Mouse pharmacokinetics (plasma, whole blood, brain)
Format: in vivo, male CD-1 mice
Details: male, CD-1, mouse; brain; intravenous, corrected doses 0.5, 1.1, 2.9, 2.0 mg/kg for 9, 12, 17, 19; read-out: Vdss
Value Kind: Vd

q: Supply measured Vd of `O=[N+]([O-])c1cn2c(n1)OC[C@@H](NCc1ccc(OC(F)(F)F)cc1)C2` in your reply.
a: 2.3 L/kg

q: Supply measured Vd of O=[N+]([O-])c1cn2c(n1)S(=O)(=O)CC(OCc1ccc(OC(F)(F)F)cc1)C2 (stereo not shown) in your reply.
a: 9.1 L/kg

q: Supply measured Vd of O=[N+]([O-])c1cn2c(n1)[S+]([O-])CC(OCc1ccc(OCc3ccccc3)cc1)C2 (stereo not shown) in your reply.
a: 1.2 L/kg

q: Supply measured Vd of O=[N+]([O-])c1cn2c(n1)[S+]([O-])CC(OCc1ccc(OC(F)(F)F)cc1)C2 (stereo not shown) in your reply.
a: 1.3 L/kg

====

Kindly state log10(solubility) for each of the entries shown.
Assay: Kinetic aqueous solubility in pH 7.4 PBS
Type: physicochemical
Source text: Table 1 Inhibitory potency, metabolic stability, aqueous solubility, and MDCK-MDR1 cell permeability for 15 screening hits against T. b. brucei. | column: Solubility ^c / (µg/mL)
Give log10 of solubility, with solubility taken in µg/mL.

q: Supply measured log10(solubility) of CC1(COCc2ccc(OCc3ccccc3)cc2)Cn2cc([N+](=O)[O-])nc2[S+]1[O-] (stereo not shown) in your reply.
a: 0.11

q: Supply measured log10(solubility) of `O=[N+]([O-])c1cn2c(n1)OC[C@@H](Oc1cc(-c3ccc(C(F)(F)F)nc3)ccn1)C2` in your reply.
a: 1.00

q: Supply measured log10(solubility) of `COc1ccc(-c2ccc(O[C@@H]3COc4nc([N+](=O)[O-])cn4C3)nc2)cn1` in your reply.
a: 1.26

q: Supply measured log10(solubility) of O=[N+]([O-])c1cn2c(n1)[S+]([O-])CC(OCc1ccc(OCc3ccccc3)cc1)C2 (stereo not shown) in your reply.
a: 0.73

q: Supply measured log10(solubility) of O=[N+]([O-])c1cn2c(n1)SC(COCc1ccc(OCc3ccccc3)cc1)C2 (stereo not shown) in your reply.
a: 0.08

q: Supply measured log10(solubility) of CC1(COCc2ccc(OCc3ccccc3)cc2)Cn2cc([N+](=O)[O-])nc2S1 (stereo not shown) in your reply.
a: 0.08

q: Supply measured log10(solubility) of CN1CC(OCc2ccc(OCc3ccccc3)cc2)Cn2nc([N+](=O)[O-])cc21 (stereo not shown) in your reply.
a: 0.38

q: Supply measured log10(solubility) of O=[N+]([O-])c1cn2c(n1)S(=O)(=O)CC(OCc1ccc(OC(F)(F)F)cc1)C2 (stereo not shown) in your reply.
a: 1.00

q: Supply measured log10(solubility) of O=[N+]([O-])c1cn2c(n1)[S+]([O-])CC(OCc1ccc(OC(F)(F)F)cc1)C2 (stereo not shown) in your reply.
a: 1.59

====

Test: Mouse pharmacokinetics (plasma, whole blood, brain)
Format: in vivo, male CD-1 mice
Conditions: male, CD-1, mouse; brain; intravenous, corrected doses 0.5, 1.1, 2.9, 2.0 mg/kg for 9, 12, 17, 19
Value Kind: AUC(0-t)

q: Supply measured AUC(0-t) of `O=[N+]([O-])c1cn2c(n1)OC[C@@H](NCc1ccc(OC(F)(F)F)cc1)C2` in your reply.
a: 962 ng·h/mL

q: Supply measured AUC(0-t) of O=[N+]([O-])c1cn2c(n1)[S+]([O-])CC(OCc1ccc(OCc3ccccc3)cc1)C2 (stereo not shown) in your reply.
a: 304 ng·h/mL

q: Supply measured AUC(0-t) of O=[N+]([O-])c1cn2c(n1)S(=O)(=O)CC(OCc1ccc(OC(F)(F)F)cc1)C2 (stereo not shown) in your reply.
a: 1770 ng·h/mL

q: Supply measured AUC(0-t) of O=[N+]([O-])c1cn2c(n1)[S+]([O-])CC(OCc1ccc(OC(F)(F)F)cc1)C2 (stereo not shown) in your reply.
a: 2850 ng·h/mL

====

Experiment: Mouse pharmacokinetics (plasma, whole blood, brain)
Type: in vivo, male CD-1 mice
Settings: male, CD-1, mouse; whole blood; intravenous, corrected doses 0.5, 1.1, 2.9, 2.0 mg/kg for 9, 12, 17, 19
Description: In order to determine the suitability of the more permeable hits for in vivo efficacy studies, we first measured their aqueous solubilities, and their tendencies to metabolise, following a 1 h incubation with CD-1 mouse liver S9 subcellular fractions.[14] […]
Kindly state AUC(0-t) for each of the entries shown.
Unit ng·h/mL implied. Number only.

q: Supply measured AUC(0-t) of O=[N+]([O-])c1cn2c(n1)[S+]([O-])CC(OCc1ccc(OCc3ccccc3)cc1)C2 (stereo not shown) [Compound 9] in your reply.
a: 489

q: Supply measured AUC(0-t) of O=[N+]([O-])c1cn2c(n1)OC[C@@H](NCc1ccc(OC(F)(F)F)cc1)C2 [Compound 17] in your reply.
a: 1100

q: Supply measured AUC(0-t) of O=[N+]([O-])c1cn2c(n1)[S+]([O-])CC(OCc1ccc(OC(F)(F)F)cc1)C2 (stereo not shown) [Compound 12] in your reply.
a: 2700

q: Supply measured AUC(0-t) of O=[N+]([O-])c1cn2c(n1)S(=O)(=O)CC(OCc1ccc(OC(F)(F)F)cc1)C2 (stereo not shown) [Compound 19] in your reply.
a: 2600
